Cited source: ChEMBL document CHEMBL4513216

Procedure summary: Toxicity liver stage against HepG2, at 10uM
Assay type: cell-based
Set-up: test concentration 10 uM, cell line HepG2-A16-CD81EGFP
Run conditions: human, HepG2-A16-CD81EGFP cells; read-out: INHIBITION
Measured cytotoxicity at 10 µM values are reported for all entries that follow.
Field format: number, assumed %, no unit text.

Problem: Determine from records and report cytotoxicity at 10 µM for Cc1nc(C)c(C(C)NCc2c(C)nn(C)c2N(C)C)s1 (centres undefined)
Solution: -4.96

Problem: Determine from records and report cytotoxicity at 10 µM for CC(C(=O)N1CCCN(Cc2cnn(C)c2)CC1)n1ccnc1 (centres undefined)
Solution: -13.8

Problem: Determine from records and report cytotoxicity at 10 µM for COc1ccc2c(c1)OCC(CNC(=O)CCc1c(C)n[nH]c1C)C2 (centres undefined)
Solution: -48.5

Problem: Determine from records and report cytotoxicity at 10 µM for C1CCC(NCCN2CCOCC2)C1
Solution: -145

Problem: Determine from records and report cytotoxicity at 10 µM for COc1ccnc(N2CCN(C(=O)Cc3ccn(C(C)C)n3)CC2)n1
Solution: -16.2

Problem: Determine from records and report cytotoxicity at 10 µM for CNc1ncccc1C(=O)N1CCCC2(C1)C(=O)N(C)c1ccccc12 (centres undefined)
Solution: -5.27

Problem: Determine from records and report cytotoxicity at 10 µM for CCOC(=O)c1nc(CN2CCN(C(=O)NC3CCCCC3)CC2)cs1
Solution: -3.47

Problem: Determine from records and report cytotoxicity at 10 µM for CCCn1nc(C)c(CNS(=O)(=O)NCc2ccccc2)c1C
Solution: -5.05

###

Procedure summary: Toxicity liver stage against HepG2, at 10uM
Format: cell-based
Set-up: test concentration 10 uM, cell line HepG2-A16-CD81EGFP
Run conditions: human, HepG2-A16-CD81EGFP cells; read-out: INHIBITION
Measurement name: cytotoxicity at 10 µM (%)
Field format: number, assumed %, no unit text.

Consider the reported cytotoxicity at 10 µM for these compounds:
{"Compound": "O=C(NCCn1nc(-n2cncn2)ccc1=O)c1ccc(F)cc1F", "Unit annotation": "%", "cytotoxicity at 10 µM": -8.78}
{"Compound": "CC(C)Cc1noc(CN2CCCC2c2noc(C3CC3)n2)n1 (stereo unspecified)", "Unit annotation": "%", "cytotoxicity at 10 µM": -12.9}
{"Compound": "Cc1nc(CNC(=O)Nc2ccc3c(c2)CCCN3C)sc1C", "Unit annotation": "%", "cytotoxicity at 10 µM": -3.68}
{"Compound": "CC(=O)N[C@H]1C[C@@H](c2nc(-c3ccc4c(c3)OCO4)no2)N(C)C1", "Unit annotation": "%", "cytotoxicity at 10 µM": -2.92}

Problem: Determine from records and report cytotoxicity at 10 µM for O=C(CN1CCCC1Cn1cncn1)Nc1nccs1 (stereo unspecified)
Solution: 4.1

Problem: Determine from records and report cytotoxicity at 10 µM for OC[C@@H]1CN2CCN(c3ccccn3)C[C@@H]2[C@H]1c1ccccc1
Solution: -2.41

###

Procedure summary: Toxicity liver stage against HepG2, at 10uM
Type: cell-based
Set-up: test concentration 10 uM, cell line HepG2-A16-CD81EGFP
Run conditions: human, HepG2-A16-CD81EGFP cells; read-out: INHIBITION
Measured cytotoxicity at 10 µM values are reported for all entries that follow.
Field format: number, assumed %, no unit text.

{"Compound": "Cn1ccnc1CN1C[C@@H](CN2CCC(CO)CC2)[C@@H](CO)C1", "Measurement name": "cytotoxicity at 10 µM", "Reading": -15.5}
{"Compound": "CC1COCCN1C(=O)Cc1cc(Cl)c2c(c1)OCCCO2 (configuration not stated)", "Measurement name": "cytotoxicity at 10 µM", "Reading": -1.43}
{"Compound": "CC(CNC(=O)CCc1ccccn1)c1ccsc1 (configuration not stated)", "Measurement name": "cytotoxicity at 10 µM", "Reading": -3.3}
{"Compound": "COc1cccc(COCC(=O)N2CCCC(n3ccnc3)C2)c1 (configuration not stated)", "Measurement name": "cytotoxicity at 10 µM", "Reading": -8.38}
{"Compound": "NC(=O)NCC1CCCCN1C(=O)c1cc(F)cc(F)c1 (configuration not stated)", "Measurement name": "cytotoxicity at 10 µM", "Reading": -8.15}
{"Compound": "CCC1=N[C@@]2(CC[C@@H]3CN(C(=O)NCC(C)C)C[C@@H]32)C(=O)N1CC(C)C", "Measurement name": "cytotoxicity at 10 µM", "Reading": -3.64}
{"Compound": "Cc1csc(CN(CC2CCCO2)C(=O)c2cccnc2C)n1 (configuration not stated)", "Measurement name": "cytotoxicity at 10 µM", "Reading": 0.459}
{"Compound": "CCc1nc(CCNC(=O)NC2CCC(=O)N(C)C2)sc1C (configuration not stated)", "Measurement name": "cytotoxicity at 10 µM", "Reading": 2.78}
{"Compound": "COC(=O)CCN1CCC(NC(=O)OC(C)(C)C)CC1", "Measurement name": "cytotoxicity at 10 µM", "Reading": 14.7}
{"Compound": "Nc1cc(-c2cncnc2C2CCN(C(=O)c3ccccc3)C2)ccn1 (configuration not stated)", "Measurement name": "cytotoxicity at 10 µM", "Reading": 1.32}

Problem: Determine from records and report cytotoxicity at 10 µM for CCn1cc(S(=O)(=O)N2CCC3(CCCN(CC4CCC4)C3=O)C2)cn1 (configuration not stated)
Solution: 2.45

Problem: Determine from records and report cytotoxicity at 10 µM for COc1cccc(CCC(=O)Nc2c(C)nn(C)c2C)c1OC
Solution: 1.98

###

Procedure summary: Toxicity liver stage against HepG2, at 10uM
Type: cell-based
Design: test concentration 10 uM, cell line HepG2-A16-CD81EGFP
Run conditions: human, HepG2-A16-CD81EGFP cells; read-out: INHIBITION
Measurement name: cytotoxicity at 10 µM (%)
Field format: number, assumed %, no unit text.

Consider the reported cytotoxicity at 10 µM for these compounds:
{"Compound": "Cc1nnsc1C(=O)N1CCCC(n2nnc3cc(F)ccc32)C1 (centres undefined)", "Reading": 3.49}
{"Compound": "CCN(Cc1cnn(CC)c1)C(=O)CN1C(=O)CCc2ccccc21", "Reading": -2.17}

Problem: Determine from records and report cytotoxicity at 10 µM for CCOCc1cc(CNC2CCCc3c2cnn3CC)ccc1OC (centres undefined)
Solution: -11.3

Problem: Determine from records and report cytotoxicity at 10 µM for COCCNc1ccc(CNCc2cnc3nc(C)cc(C)n23)cc1
Solution: -153

Problem: Determine from records and report cytotoxicity at 10 µM for COc1ccc(COCC(O)CNC(=O)c2cc(C)no2)cc1 (centres undefined)
Solution: 0.742

###

Procedure summary: Toxicity liver stage against HepG2, at 10uM
Type: cell-based
Parameters: test concentration 10 uM, cell line HepG2-A16-CD81EGFP
Run conditions: human, HepG2-A16-CD81EGFP cells; read-out: INHIBITION
Measured cytotoxicity at 10 µM values are reported for all entries that follow.
Field format: number, assumed %, no unit text.

Consider the reported cytotoxicity at 10 µM for these compounds:
{"Compound": "O=C(N[C@@H]1CN(Cc2ccc(F)cc2)C[C@H]1O)c1cscn1", "Measurement name": "cytotoxicity at 10 µM", "Reading": -11.7}
{"Compound": "CC(=O)N1Cc2ccccc2OC2(CCN(C(=O)C3CC3)CC2)C1", "Measurement name": "cytotoxicity at 10 µM", "Reading": 9.91}
{"Compound": "O=C(Nc1ccccc1OCC(F)F)N[C@@H]1C=C[C@H](CO)C1", "Measurement name": "cytotoxicity at 10 µM", "Reading": -7.14}
{"Compound": "O=C1COc2c(cccc2C(=O)N2CCCCC2Cn2cccn2)N1 (stereo unspecified)", "Measurement name": "cytotoxicity at 10 µM", "Reading": 4.07}
{"Compound": "O=C1C(N2CCOC3(CCCC3)C2)CCN1C1CC1 (stereo unspecified)", "Measurement name": "cytotoxicity at 10 µM", "Reading": 9.4}

Lab note: next compound to report on.
Problem: Determine from records and report cytotoxicity at 10 µM for Cc1cc(O)c(OCC(=O)Nc2nc3c(s2)CCCC3)cn1
Solution: 12.8

###

Measured cytotoxicity at 10 µM values are reported for all entries that follow.
Procedure summary: Toxicity liver stage against HepG2, at 10uM
Format: cell-based
Parameters: test concentration 10 uM, cell line HepG2-A16-CD81EGFP
Run conditions: human, HepG2-A16-CD81EGFP cells; read-out: INHIBITION
Field format: number, assumed %, no unit text.

Consider the reported cytotoxicity at 10 µM for these compounds:
{"Compound": "CC(C)CC(=O)N1CC[C@@H]2[C@H](CC1)N(Cc1cccnc1)CCS2(=O)=O", "Measurement name": "cytotoxicity at 10 µM", "Reading": 0.238}
{"Compound": "Cc1cccc(OC2CCN(c3ccc(C#N)cn3)CC2)n1", "Measurement name": "cytotoxicity at 10 µM", "Reading": 15.5}
{"Compound": "CN1C(=O)CC(C(=O)O)C12CCN(c1ccc3ccccc3n1)CC2 (stereo unspecified)", "Measurement name": "cytotoxicity at 10 µM", "Reading": 1.21}
{"Compound": "Cc1ncsc1-c1nc(CC2CCN(C)CC2)nn1Cc1ccccc1", "Measurement name": "cytotoxicity at 10 µM", "Reading": 10.2}
{"Compound": "CNc1nc(CNC(=O)Nc2cccc(-c3ncc(C)o3)c2)cs1", "Measurement name": "cytotoxicity at 10 µM", "Reading": -7.57}

Lab note: next compound to report on.
Problem: Determine from records and report cytotoxicity at 10 µM for Cc1ccc(OCC(=O)Nc2cnccc2SCCCO)cc1C
Solution: -2.35
